Taken from paper PMC7156458.

Test system: DL1 cells
Assay: cytotoxicity in Drosophila DL1 cells
Assay type: cell-based
Settings: read-out: IC50 (1); DL1 cells, cytotoxicity, replicate 1
quantityMeasured: IC50

molecule="C=C1CCC2C(C)(CCC=C(C)C)C(O)CCC2(C)C1Cc1c(OC)oc(C)c(C)c1=O (stereo not shown) [Compound 11]" testresult="380 nM"

====

Collected Th-T fluorescence, mean of three wells values appear next to each entry.
Biological target: Aβ42 (Homo sapiens, UniProt P05067)
Sequence (P05067 672-713): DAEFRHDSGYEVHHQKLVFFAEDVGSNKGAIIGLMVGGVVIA
Assay: Th-T (thioflavin-T) assay of Aβ42 aggregation
Type: biochemical
Details: Supplementary Fig. 47; reading M140
quantityMeasured: Th-T fluorescence, mean of three wells

compound=C=C1CC[C@H]2[C@]3(C)C[C@@H](C=C(C)C)O[C@H]3CC[C@]2(C)[C@@H]1Cc1c(OC)oc(CO)c(C)c1=O assaytarget="Aβ42 (Homo sapiens, UniProt P05067)" testresult=3.575
compound="C=C1CCC2C(C)(CCC=C(C)C)C(=O)CCC2(C)C1Cc1c(O)c(C)c(C)oc1=O (stereo not shown)" assaytarget="Aβ42 (Homo sapiens, UniProt P05067)" testresult=2.2093
compound=CC(C)=CCC/C(C)=C/CC/C(C)=C/CC/C(C)=C/Cc1c(O)c(C)c(C)oc1=O assaytarget="Aβ42 (Homo sapiens, UniProt P05067)" testresult=2.936
compound=C=C1CC[C@H]2[C@]3(C)C[C@H](C=C(C)C)O[C@H]3CC[C@]2(C)[C@@H]1Cc1c(OC)oc(C)c(C)c1=O assaytarget="Aβ42 (Homo sapiens, UniProt P05067)" testresult=3.832
compound=C=C1CC[C@H]2[C@]3(C)C[C@H](C=C(C)C)O[C@H]3CC[C@]2(C)[C@@H]1Cc1c(OC)oc(CO)c(C)c1=O assaytarget="Aβ42 (Homo sapiens, UniProt P05067)" testresult=3.758
compound="C=C1CCC2C(C)(CCC=C(C)C)C(O)CCC2(C)C1Cc1c(OC)oc(C)c(C)c1=O (stereo not shown) [Compound 11]" assaytarget="Aβ42 (Homo sapiens, UniProt P05067)" testresult=3.319
compound=C=C1CC[C@@H]2[C@](C)(CC[C@H]3O[C@H](C=C(C)C)C[C@@]23C)[C@@H]1Cc1c(O)c(C)c(C)oc1=O assaytarget="Aβ42 (Homo sapiens, UniProt P05067)" testresult=2.981
compound="C=C1CCC2C(C)(CC(=O)C=C(C)C)C(O)CCC2(C)C1Cc1c(O)c(C)c(C)oc1=O (stereo not shown)" assaytarget="Aβ42 (Homo sapiens, UniProt P05067)" testresult=3.433
compound="C=C1CCC2C(C)(CC(=O)C=C(C)C)C(O)CCC2(C)C1Cc1c(OC)oc(C)c(C)c1=O (stereo not shown)" assaytarget="Aβ42 (Homo sapiens, UniProt P05067)" testresult=3.521
compound="C=C1CCC2C(C)(CCC=C(C)C)C(O)CCC2(C)C1Cc1c(O)c(C)c(C)oc1=O (stereo not shown) [Compound 4]" assaytarget="Aβ42 (Homo sapiens, UniProt P05067)" testresult=2.723
